The measurements presented in this section are drawn from patent US20200040103A1.

# Target Under Test: recombinant human KLK5 (human) (UniProt Q9Y337)
# Sequence (Q9Y337 67-293): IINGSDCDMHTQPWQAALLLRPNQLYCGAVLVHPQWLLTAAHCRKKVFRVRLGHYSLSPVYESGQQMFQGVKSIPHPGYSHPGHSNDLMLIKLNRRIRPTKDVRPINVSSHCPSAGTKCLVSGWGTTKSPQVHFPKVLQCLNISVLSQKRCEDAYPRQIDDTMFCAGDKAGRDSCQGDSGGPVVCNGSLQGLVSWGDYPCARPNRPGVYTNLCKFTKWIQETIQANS
# Run Description: pro-KLK7 coupled assay, 5 nM KLK5
Below, each entry is listed alongside its reported pIC50.
Scale: negative log10 of molar concentration, which is what pIC50 denotes.

Query: Given the binder 9B6 (antibody, V domains shown) VH: QSVKESEGGLFKPTDNLTLTCTVSGFSLSNYGVTWVRQAPGNGLEYIGFIGSGGSAYYASWAKSRSTITRNTNLNTVTLKMTSLTAADTATYFCARDDVGGGKSLDIWGPGTLVTVSS VL: NIVMTQTPASVEVAVGGTVVIKCQASQNIGDYLSWYQQKPGQRPKLLIYSASTLASGVPSRFKGSGSGTQFTLTISDLECADAATYYCHQDYTSNDVENTFGGGTEVVVK , what is its reported pIC50?
Result: 9.02

Query: Given the binder 9F2 (antibody, V domains shown) VH: QSVKESEGGLFKPTDNLTLTCTVSGFSLSSYGVSWVRQAPGNGLEYIGFIGSGGSPYYASWAKSRSTITRNTNLNTVTLKMTSLTAADTATYFCARDDVGGGKSLDIWGPGTLVTVSS VL: NIVMTQTPASVEVAVGGTVIIKCQASQSISNYLSWYHQKSGQRPRLLIYSASTLASGVPSRFKGSGSGTQFTLTISDLECADAATYYCHQDYTSNSVDNTFGGGTEVVVK , what is its reported pIC50?
Result: 9.03
